method: label from the status in PepcDB records
endpoint: protein production

MEMINVFVYGTLRRGGGNHQLIAEYVQSVHEATVKGMLFHLPYGYPAMVDGRGTVRGEILELSNPETALTILDELEGYHGPGQSNEYERITVTAVTADGNKYICYTYVYPEEQREWLEQNAQPIFGGDWMAFLHSKDEVMYFAYGSCMSERDFRRTVPHFEVMGRAVLDDYRLAFTRYSSGRQGGVADIVPSPGDRVEGVLYKISSRYVKDLDWREGVPAGVYRREYIDVQHNGQLVSALTYVVVEKQLDEIAPSESYASIILDEGTSLLSPQYIEQVRRHIETLQKKGR; failed
MAYNSNSNNNNNNIVVVFDFDKTIIDVDSDNWVIDELGFTDLFNQLLPTMPWNTLMDRMMKELHDQGKTIEEIKQVLRTIPIHPRVVPAIKSAHDLGCELRIVSDANMFFIETIVEHLGISELFSEINSNPGYVDERGTLKISPYHDFTKSPHSCSCGTCPPNMCKGLIIERIQQSLAKEGKKKMIYLGDGAGDYCPSLKLNTEDYVMPRKNFPVWDLISQNPMLIKAAIREWTDGQSMEMILIGTIEEIRLEEEKEKMLTSAENNCKMQTISIGINNVHHEPILPRALRVSQSS; failed
KPKDIKYVVEESKFKDLREILEFMLKDAVQKLDMFLDMLNYSKPKVDVGDEVIEIKKDNVIEALKLFKDEYEVSKKHIPVPVYTYLIKRNILFLNPIEGILKPQSYLVWNAIKRLL; failed

---

method: label from the status in PepcDB records
endpoint: protein production

MPIITKNTDTTCQTPPLLSIICPAYNQEAFVAQALDGFLSQQTRFNYEILINDDASTDGTARIIAQYAERHPTIIRAFYQQVNQYSQGLPCVPDLFAEARGRYIAYCEADDYWTDPRKLQLQVDFLESHPDYVITYHDAVAFDENGEYGVQLQGHLRADATALELQQARRLSTLTTCFRNVFSTMPPELNIRVAPLNDMCWWSLLGAHGKGKFMADIKPAAYRLHAGGVFSMRSDKRKLHMNLQTCSSLANYYNLQGNQALYEYFLMQTVCLSLAALTPSHKLQTLWQVASNVVVNLGRRLLPTTGKAHVQ; failed
MRAMSKFSRIGLAGVVGAALHAILANHLAPAVQQRLPIGRVSLTFFLALLSALAAGAVLARLAPRARVAALAVAALAFLLLAAATTWLQQCTPAQLAAIDAATPLGCNLGLYNRARAHLPPDGRPAELAPGVWFDRHGLSYACLPPEAQATHLRVALADYALALVGMSLGALLGARQRRRRDQD; failed

---

method: label from the status in PepcDB records
endpoint: protein production

MGVLAEVYEMLNTCNRCGFCHTACKTYKVDGAETMVSRGRVQLIKAVADGVIEADADYEDSINSCLLCGECAVACPSGVSAKELVMAARRDLKLRHGLEHHHHHH; not failed
MASISNLIILLISFLIGWIILSIPVWLASKAVSRRSSFGNAMIVSLVSIVVYVVLSTFLHFIGAIIGIIIILLIIREIYNVGWGGAIVIGVLSLVIFVIIALILGALHLASLLI; failed
MSPEGAERYDRNCDHQFQKGHVLIEMMGIKKGDFVLDVGCGTGRQALNVAGIIGPAGKLTGIDPSSYRIELARKKFEGDSSGNVRFLVRQAENLQDIPDNSINHAYFCSSFHWVDDKKTALNEIFRVLRPGGKVGMTTLDRNSPNTMKALIDPILAKFGIERRHEWHRGMKKVTAPELHDLLSGAGFTSISIEPRAVPRKYNSPEEFLQHPEEKDSSRGILRDISNETLEKLRQEITEEFRKAQTPEDIGFGNITLFAIATKAQEGLEHHHHHH; failed
MRKAWVKTLALDRVSNTPVVILGIEGTNRVLPIWIGACEGHALALAMEKMEFPRPLTHDLLLSVLESLEARVDKVIIHSLKDNTFYATLVIRDLTYTDEEDEEAALIDIDSRPSDAIILAVKTGAPIFVSDNLVEKHSIELEVNETQDEEEEFKKFVENLNIDTFKQMIEKKREEDEEGES; not failed
MFELLFLLLPIAALYGWYIGRLSVKKEQESINNKFSRDYVTGLNFLLSNQQEKAVDLFLSMLQKQESENQIATESQFEAELTLGNLFRSRGEVDRALRIHQALDSSLNYSIEQKLLAKQQLAKDFMAAGFYDRAENYYILLLDEPEFAVNSLTQLMVLYQKTNEWKKAINVAEKLLKIDPKTDRIPLSHYYCEYAQAIKSEDEDLYLRLLGKALEYSPLCTRASMLLGDYYLAQGQFSQALTHFEHILVQDPDYISEVLHNIKTCHAALHDFINYELFLIRSNQVKHNSSVDIALAELIEQKDGLIAAHSKLYQQLSKYPSMLIFHRFIYYQINEAEEGSAKESLVLLHNMVGARIKKSFQYRCLNCGYQSYRLSWYCPSCRQWEQIKPINGIDSY; failed
VKMSDKWIEIEEILSGLIGDLTIAVTVLKDYEGKAFLREPQHQTKRQCIWRLCVYSIVINCRKYVELNQKYGKEFQALIPGHNHIRGVYNNEINKNTAIKKLRNHCVAHVSDKSKYLKPAEVQEEIIKMFDGNFADEFLDWICPDNISTTDKSESLVGVIELLRDAVSAKL; not failed
RLLRLKLSSLGVLKVFPNRDEAYKDIFKDLVDSNEILLLGYKGNALLSNSDYPSRLEILEEYSRGQKIAIKALLLSPQAKQYVKKRSVELGEKNLHRNHSRDIEDSIVNFRKVKENGILDVECRLFSEALKWSLLFSDKYILVSFYNNKVRVKLSPCFKLRRSSMLGWAFEKHFRDLWEKKSIDAFTSYTRPCVIVVVGGSFTGKSIISNHLSNKYQFSGVLSTDMVRNFFRISTRDRKTYQTSTYRMDDSELNIQKNNVSNMIEQMLEIYRSRREKIIIEGMHLTEDFLRNINKQDCLIIGLDNKRDINDRLDLKMKTTREEVSKKTEDEKKRINEIHYGIIECCKRNNFKVVEFQDIEDAKDKCEHLVEEFFTQRSKR; failed
MNVPILPTISTSCIVISAILVAIGWALIWKRQVHKHKNIMLWAAFFALTFFIIYAARTIFIGNTAFGGPSSIKVYYTIFLVFHIILATVGGVLGLIQIILAFKDKLHIHRKIGPWASIIWFFTAITGVAVYVLLYVLYPGGETTSLLKATLGL; failed
MDLDNLFKTTSSSKDKKNNTIDLVVSDDMAFLQAIDELYAIEGFASPLKVDDIDDESWHKTSAEIKHVVLDLRDCGELVSEVAEISSRLDVSISLIVLSNTDSILMRDKVLSLGANYILWDPELDGLLGALKESGKDTFSPTVKKKSRIAKRVLMLGSKGGVGVSTISAFLSHSLSQQASLKTLLVEHDTLALNSDIFLGLKGLKAQQNSIDLNQSELDAAIAGSYVHPIKDKLDFLALEKNIACISDHADSLFRISNELVDQYNFIIDSLPLNAINELTSEDINERYNRIFVVCEPSVASLRAYHSIKKKLGKAEHRIIFSMTRSQKDYMMPLQGAKEKIKAKDTIDFVYEANLEKLIIQQGIHNTAKIKFTPAIANMVNSLTGKKVKVQKKFAWFKK; failed
MEEKQILCVGLVVLDVISLVDKYPKEDSEIRCLSQRWQRGGNASNSCTILSLLGAPCAFMGSMAPGHVADFVLDDLRRYSVDLRYTVFQTTGSVPIATVIINEASGSRTILYYDRSLPDVSATDFEKVDLTQFKWIHIEGRNASEQVKMLQRIDAHNTRQPPEQKIRVSVEVEKPREELFQLFGYGDVVFVSKDVAKHLGFQSAEEALRGLYGRVRKGAVLVCAWAEEGADALGPDGKLLHSDAFPPPRVVDTLGAGDTFNASVIFSLSQGRSVQEALRFGCQVAGKKCGLQGFDGIV; failed

Suppose we examine the sequence `MQPISILFLGIDDNDGRRKKGQDAEHSRSDAMILTTFNQSKHQIRMLSIPRDTISYIPKVGYYDKITHAHAYGGPIAAMDSVEATMNVPVDYYVRVNMKAFVEAVNELGGIYYDVPYDLNEPNTDDTGKIKIKKGYQKLNGDEALAVARTRHHDSDLKRGQRQMELIKILFQKAQEVDSIDKLDNVIQIVGKNAKHNLTNSEIKALAKMYLTNDVEIKTAQLKGKDDMLNGIYYYHPSVESIQKYANLLRKDLELSPINDKNDFLDQRVINHYGSLIPLTPLDSSLLRLEHHHHHH` ; what protein production value has been reported?
not failed

For the sequence `LHDTDQQGMFERGSAIVEPRFRSLLQQIGSMLGEIDNRLLVVGHTDAAQYHRAGGFAAMSNWSLSSNRAMAARLHMMQGGLAADSVLQVVGMAERAPLDKQHPLGAVNRRIELLVLTSGQAQA` , what protein production is on record?
failed
